- measured.on: human histamine H3 receptor (Homo sapiens)
- Construct: expressed in transfected cells; membranes prepared from cell pellets
- experimental.protocol: [3H]-N-methylhistamine binding to membranes of histamine H3 receptor-expressing SK-N-MC cells
measured.parameter: Ki (nM)
Could you give me the number in nM? Just the number is fine.

What does the record list as Ki for OC1CCN(Cc2ccc(OCCCN3CCCCC3)cc2)CC1 ?
0.6

====

Listed here: items and their measured pKi.
- measured.on: human histamine H3 receptor (Homo sapiens)
- Construct: expressed in transfected cells; membranes prepared from cell pellets
- experimental.protocol: [3H]-N-methylhistamine binding to membranes of histamine H3 receptor-expressing SK-N-MC cells
- condition.info: 0.8 nM [3H]-N-methylhistamine, 45 min at 25° C., SK-N-MC cell membranes; Ki=(IC50)/(1+([L]/(Kd)); read-out: Ki
Here pKi is given on a logarithmic scale as minus log10 of the concentration in mol/L.

Illustrative cases are given below, each with its answer.
c1ccc(NC2CCN(Cc3ccc(OCCCN4CCCCC4)cc3)CC2)nc1
9.10
c1ccc(NCc2ccc(OCCCN3CCCCC3)cc2)nc1
8.30
c1cc(-c2ncc(OCCCN3CCCCC3)cn2)ccc1OCCCN1CCCCC1
7.89

What does the record list as pKi for c1cc(OCCCN2CCCCC2)ccc1CN1CCCCCCCCCCCC1 ?
8.60

Also CN(C)CCOc1ccc(OCCCN2CCCCC2)cc1 ?
8.64

Also c1cc(OCCCN2CCOCC2)ccc1CN1CCCCC1 ?
8.40

Also OCCC1CCCCN1CCCOc1ccc(CN2CCCCC2)cc1 (stereo not shown) ?
8.41

====

- measured.on: human histamine H3 receptor (Homo sapiens)
- Construct: expressed in transfected cells; membranes prepared from cell pellets
- experimental.protocol: [3H]-N-methylhistamine binding to membranes of histamine H3 receptor-expressing SK-N-MC cells
- condition.info: 0.8 nM [3H]-N-methylhistamine, 45 min at 25° C., SK-N-MC cell membranes; unit given as nm; read-out: Ki
measured.parameter: pKi
Here pKi is given on a logarithmic scale as minus log10 of the concentration in mol/L.

What does the record list as pKi for c1ccc2c(c1)CCCN2Cc1ccc(OCCCN2CCCCC2)cc1 ?
8.32

====

- measured.on: human histamine H3 receptor (Homo sapiens)
- Construct: expressed in transfected cells; membranes prepared from cell pellets
- experimental.protocol: [3H]-N-methylhistamine binding to membranes of histamine H3 receptor-expressing SK-N-MC cells
- condition.info: 0.8 nM [3H]-N-methylhistamine, 45 min at 25° C., SK-N-MC cell membranes; […]; read-out: Ki
- Experimental: Thus in the present invention receptor binding was determined using the human histamine H3 receptor (See Lovenberg et al Mol. Pharmacol. 1999, 1107). […] Conventional binding assays for example are determined using rat synaptosomes (Garbarg et al J. Pharmacol. Exp. Ther. 1992, 263, 304), rat cortical membranes (West et al Mol. Pharmacol. 1990, 610), and guinea pig brain (Korte et al Biochem. Biophys. Res. Commun. 1990, 978). […]
Structures can show the parent of a compound that is named as a salt.
measured.parameter: Ki (nM)
Could you give me the number in nM? Just the number is fine.

OC1(c2ccc(OCCCN3CCCCC3)cc2)CCN(Cc2ccccc2)CC1
0.9
c1ccc(N(CCN2CCCC2)C2CCN(Cc3ccc(OCCCN4CCCCC4)cc3)CC2)nc1
1.2
c1ccc2c(c1)CCN2C1CCN(Cc2ccc(OCCCN3CCCCC3)cc2)CC1
2
OCCC1CCN(Cc2ccc(OCCCN3CCCCC3)cc2)CC1
1.2
OC1(c2ccc(Cl)cc2)CCN(Cc2ccc(OCCCN3CCCCC3)cc2)CC1
1.8
c1cc(N2CCNCC2)ccc1OCCCN1CCCC1 [Example 23, hydrochloride]
1.3
c1ccc2c(c1)ncn2C1CCN(Cc2ccc(OCCCN3CCCCC3)cc2)CC1
2
CC(C)N1CCC(O)(c2ccc(OCCCN3CCCCC3)cc2)CC1
2.9
c1ccc(CN2CCN(Cc3ccc(OCCCN4CCCCC4)cc3)CC2)cc1
0.9
c1ccc(CN2CCN(c3ccc(OCCCN4CCCCC4)cc3)CC2)cc1
3

Next, consider the following molecule.
What does the record list as Ki for Brc1ccc2c(c1)CCN2C1CCN(Cc2ccc(OCCCN3CCCCC3)cc2)CC1 ?
3

====

Listed here: items and their measured pKi.
- measured.on: human histamine H3 receptor (Homo sapiens)
- Construct: expressed in transfected cells; membranes prepared from cell pellets
- experimental.protocol: [3H]-N-methylhistamine binding to membranes of histamine H3 receptor-expressing SK-N-MC cells
- condition.info: 0.8 nM [3H]-N-methylhistamine, 45 min at 25° C., SK-N-MC cell membranes; Ki=(IC50)/(1+([L]/(Kd)); read-out: Ki
Here pKi is given on a logarithmic scale as minus log10 of the concentration in mol/L.

Illustrative cases are given below, each with its answer.
CN(CCc1ccccn1)Cc1ccc(OCCCN2CCCCC2)cc1
9.00
Clc1ccc(NCc2ccccc2OCCCN2CCCCC2)cc1
5.82
CC1CCCCN1CCCOc1ccc(CN2CCCCC2)cc1 (stereo not drawn)
8.96

What does the record list as pKi for c1cc(OCCCN2CCCCC2)ccc1CNC1CC1 ?
9.00

Also c1ccc2c(c1)CCC2NCc1ccc(OCCCN2CCCCC2)cc1 (stereo not drawn) ?
9.00

Also c1cc(OCCCN2CCCCC2)ccc1CN1CCCC1 ?
8.92

====

- measured.on: human histamine H3 receptor (Homo sapiens)
- Construct: expressed in transfected cells; membranes prepared from cell pellets
- experimental.protocol: [3H]-N-methylhistamine binding to membranes of histamine H3 receptor-expressing SK-N-MC cells
- condition.info: 0.8 nM [3H]-N-methylhistamine, 45 min at 25° C., SK-N-MC cell membranes; Ki=(IC50)/(1+([L]/(Kd)); read-out: Ki
measured.parameter: pKi
Here pKi is given on a logarithmic scale as minus log10 of the concentration in mol/L.

Illustrative cases are given below, each with its answer.
CCN(Cc1ccncc1)Cc1ccc(OCCCN2CCCCC2)cc1
8.89
CN(Cc1ccccc1)Cc1ccc(OCCCN2CCCCC2)cc1
9.00
c1cc(OCCCN2CCCCC2)ccc1CN1CCC2(CC1)OCCO2
9.00
Clc1ccc(NCc2cccc(OCCCN3CCCCC3)c2)cc1
7.05
c1ccc(-c2ccc(OCCCN3CCCCC3)cc2)c(CN2CCCCC2)c1
8.82

What does the record list as pKi for c1cc(OCCN2CCCCC2)ccc1CN1CCCCC1 ?
8.30

Also c1ccc2c(c1)CCN(Cc1ccc(OCCCN3CCCCC3)cc1)C2 ?
9.15

Also c1ccc(CN(CCCn2cccc2-c2ccc(OCCCN3CCCCC3)cc2)Cc2ccccc2)cc1 ?
8.26

Also Clc1ccc(N2CC3CC2CN3Cc2ccc(OCCCN3CCCCC3)cc2)cc1 (stereo not drawn) ?
8.85

====

- measured.on: human histamine H3 receptor (Homo sapiens, UniProt Q9Y5N1)
- Construct: expressed in transfected cells; membranes prepared from cell pellets
- Sequence (Q9Y5N1 whole entry): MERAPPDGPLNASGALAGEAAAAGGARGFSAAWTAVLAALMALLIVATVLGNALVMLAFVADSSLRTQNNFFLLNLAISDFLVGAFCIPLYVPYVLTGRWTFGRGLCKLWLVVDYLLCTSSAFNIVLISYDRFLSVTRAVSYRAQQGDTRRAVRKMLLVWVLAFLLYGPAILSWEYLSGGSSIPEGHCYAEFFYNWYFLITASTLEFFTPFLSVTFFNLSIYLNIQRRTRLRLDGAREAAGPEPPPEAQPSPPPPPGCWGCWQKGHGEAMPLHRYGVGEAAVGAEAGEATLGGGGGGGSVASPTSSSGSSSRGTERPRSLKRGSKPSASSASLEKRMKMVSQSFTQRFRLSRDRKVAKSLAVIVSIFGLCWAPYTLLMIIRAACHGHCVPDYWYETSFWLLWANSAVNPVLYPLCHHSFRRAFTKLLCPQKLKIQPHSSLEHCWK
- experimental.protocol: [3H]-N-methylhistamine binding to membranes of histamine H3 receptor-expressing SK-N-MC cells
- condition.info: 0.8 nM [3H]-N-methylhistamine, 45 min at 25° C., SK-N-MC cell membranes; Ki=(IC50)/(1+([L]/(Kd)); read-out: Ki
Where a name gives a salt, the structure may show the parent alone.
The threshold is 2 nM. Values of Ki beneath it are tagged yes (1); values meeting or exceeding it are tagged no (0).

A selection of reference data follows.
c1cc(N2CCNCC2)ccc1OCCCN1CCCCC1 [Example 25, hydrochloride]
yes (1)
CN(CCc1ccccc1)Cc1cccc(OCCCN2CCCCC2)c1
no (0)
C(=C\c1ccccc1)/CN1CCN(Cc2ccc(OCCCN3CCCCC3)cc2)CC1
yes (1)

Identify whether the molecule OC1(c2ccccc2)CCN(Cc2ccc(OCCCN3CCCCC3)cc2)CC1 records Ki below 2 nM.
yes (1)

Also CC(C)N1CCN(c2ccc(OCCCN3CCCCC3)cc2)CC1 ?
yes (1)

Also CN1CCN(Cc2ccc(OCCCN3CCCCC3)cc2)CC1 ?
no (0)

====

- measured.on: human histamine H3 receptor (Homo sapiens)
- Construct: expressed in transfected cells; membranes prepared from cell pellets
- experimental.protocol: [3H]-N-methylhistamine binding to membranes of histamine H3 receptor-expressing SK-N-MC cells
- condition.info: 0.8 nM [3H]-N-methylhistamine, 45 min at 25° C., SK-N-MC cell membranes; Ki=(IC50)/(1+([L]/(Kd)); read-out: Ki
measured.parameter: pKi
Here pKi is given on a logarithmic scale as minus log10 of the concentration in mol/L.

c1cc(-c2ccc(OCCCN3CCCCC3)cc2)n(CCCN2CCCCC2)c1
8.82

Short answer please: pKi, human histamine H3 receptor (Homo sapiens), entry CN(C)CCCOc1ccc(CN2CCCCC2)cc1
8.24

Also c1cc(-n2nnnc2SCCCN2CCCCC2)ccc1OCCCN1CCCCC1 ?
9.30

Also C(=C1CCN(Cc2ccc(OCCCN3CCCCC3)cc2)CC1)c1ccccc1 ?
8.89

Also CN1CCN(CCCOc2ccc(CN3CCCCC3)cc2)CC1 ?
7.60
